assay: Antiproliferative activity against human U87 cells after 72 hrs; format: functional, cell-based, U-87MG ATCC; conditions: U-87 MG
reported-metric: pIC50
# pIC50 is unitless: minus log10 of the molar concentration; print number only

Exam item: Return reported pIC50; argument: CCC1=C[C@@H]2CN(C1)Cc1c([nH]c3ccccc13)[C@@](C(=O)OC)(c1cc3c(cc1OC)N(C)[C@H]1[C@@](O)(C(=O)OC)[C@H](OC(C)=O)[C@]4(CC)C=CCN5CC[C@]31[C@@H]54)C2
Marked response: 8.70

Exam item: Return reported pIC50; argument: CC[C@]1(O)C[C@@H]2CN(CCc3c([nH]c4ccccc34)[C@@](C(=O)OC)(c3cc4c(cc3OC)N(C)[C@H]3[C@@](O)(C(=O)OC)[C@H](OC(C)=O)[C@]5(CC)C=CCN6CC[C@]43[C@@H]65)C2)C1
Marked response: 9.00

Exam item: Return reported pIC50; argument: CCC1=C[C@@H]2CN(C1)C[C@H](CN1CCC[C@H]1C(=O)N[C@H](C(=O)OC)[C@@H](C)CC)Cc1c([nH]c3ccccc13)[C@@](C(=O)OC)(c1cc3c(cc1OC)N(C)[C@H]1[C@@](O)(C(=O)OC)[C@H](OC(C)=O)[C@]4(CC)C=CCN5CC[C@]31[C@@H]54)C2
Marked response: 6.40

Exam item: Return reported pIC50; argument: CCC1=C[C@@H]2CN(C1)C[C@H](CN1CCC[C@H]1C(=O)OC)Cc1c([nH]c3ccccc13)[C@@](C(=O)OC)(c1cc3c(cc1OC)N(C)[C@H]1[C@@](O)(C(=O)OC)[C@H](OC(C)=O)[C@]4(CC)C=CCN5CC[C@]31[C@@H]54)C2
Marked response: 7.60
